- tgt: Galectin-3 (Homo sapiens, UniProt P17931)
- Sequence (P17931 whole entry): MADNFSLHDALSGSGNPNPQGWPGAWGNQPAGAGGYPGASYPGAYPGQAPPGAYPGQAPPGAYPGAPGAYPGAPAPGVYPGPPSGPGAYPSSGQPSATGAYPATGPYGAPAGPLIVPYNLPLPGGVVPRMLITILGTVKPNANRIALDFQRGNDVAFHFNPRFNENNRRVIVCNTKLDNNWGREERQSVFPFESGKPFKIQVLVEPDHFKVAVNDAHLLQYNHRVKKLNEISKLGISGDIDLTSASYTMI
- protocol-description: SPR (BiacoreT200) binding affinity
- measurement-context: 25° C., read-out: hGal-3 KD
Kd by entry:
Lab book: enter the figure in nM, no units written.

23H9.2E4: murine anti-Gal3 antibody (antibody, V domains shown) VH: QIQLVQSGPELKKPGETVKISCKASGYTFTTYAMSWVKQAPGKGLKWMGWINTYSGVPTYADDLKGRFAFSLETSASTAYLQINNLKNEDTATYFCARGPYAMDYWGQGTSVTVSS VL: DIQMTQTTSSLSASLGDRVTISCSASQGINNYLNWYQQKPDGTVKLLIYYASSLHSGVPSRFSGSGSGTDYSLTISNLEPEDIATYYCQQYSQVPYTFGSGTKLEIK
4.26
IMT001: anti-Gal3 monoclonal antibody (Immutics); printed as mIMT001 (IMT001), murine (antibody, V domains shown) VH: QIQLVQSGPELKKPGETVKISCKASGYTFTNYGMNWVKQAPGKGLKWMGWINTNTGEPTYVEEFKGRFAFSLETSASTAYLQINNLKNEDTATYFCAPYDNFFAYWGQGTLVTVSA VL: DIVITQDELSNPVTSGESVSISCRSSKSLLYKDGKTYLNWFLQRPGQSPQLLIYLMSTHASGVSDRFSGSGSGTDFTLEISRVKAEDVGVYYCQQLVDYPLTFGAGTKLELK
1.67

Now for the molecule whose Kd we want.
**Q:** Which Kd is reported for this molecule? 846.1F5: murine anti-Gal3 antibody (antibody, V domains shown) VH: QIQLVQSGPELKKPGETVKISCKASGYTFTNYGMNWVKQAPGKGLKWMGWINTYTGEPSYADDFKGRFAFSLETSASTAYLQINNLKNEDMATYFCARWGGYDGDYYAMDYWGQGTSVTVSS VL: NIMMTQSPSSLAVSAGEKVTMSCKSSQSVLYSSNQKNYLAWYQQKPGQSPKLLIYWASTRESGVPDRFTGSGSGTDFTLTISSVQPEDLAVYYCHQYLSSLTFGAGTKLELK
**A:** 2.73
